Test system: MT4
Experiment: Cytotoxic concentration of compound required to reduce the viability of mock-infected MT-4 cells by 50%
Type: functional
Settings: Homo sapiens
Measured CC50 of individual entries
Give the value in µM but do not write µM after it.

Cc1cn([C@H]2C[C@H](N=[N+]=[N-])[C@@H](CO)O2)c(=O)[nH]c1=O = 20
Nc1ncnc2c1ncn2[C@H]1CC[C@@H](CO)O1 = 890

Query: CC50; subject: "O=c1[nH]c(=O)n(COCCO)c(I)c1Br"
Reply: 11.5

Query: Fill in the blank: the reported CC50 of "O=c1cc(Sc2ccccc2)n(COCCO)c(=O)[nH]1" is ____.
Reply: 1850

Query: What measured CC50 goes with "Cc1c(Sc2ccccc2)n(COCCO)c(=O)[nH]c1=O" ?
Reply: 740

Query: Which CC50 value belongs to "Cc1c(I)n(COCCO)c(=O)[nH]c1=O" ?
Reply: 400

Query: What does the record list as CC50 for "O=c1cc(I)n(COCCO)c(=O)[nH]1" ?
Reply: 75

Query: I am curious: what CC50 value has been reported for "O=c1[nH]c(=O)n(COCCO)c(Sc2ccccc2)c1Br" ?
Reply: 44

Query: Requested read-out: CC50. Entry: "O=c1[nH]c(=O)n(COCCO)c(I)c1Cl"
Reply: 13
